Where these numbers come from: paper PMC6001651

Tested on: melanocyte MDA-MB-435S
Assay: MTT anti-cancer assay
Format: cell-based, human
Conditions: MBD-MB-435S, 24 h
Where no end group is shown, it is not given here.
experimental-readout: IC50
The number alone won't do; follow it with the unit.

Recorded IC50 for RKKRRQRRRLNLKALLAVAKKIL-NH2 [tMP-C] , please?
3.86 µM

---

Assay: Haemolysis assay
Format: cell-based
Conditions: horse erythrocytes, 2% suspension
Where no end group is shown, it is not given here.
experimental-readout: HC50 at 2 h (µM)
Express the result in µM but write the number alone.

What HC50 at 2 h value was documented for this substance, RKKRRQRRRLNLKALLAVAKKIL-NH2 [tMP-C] ?
77.9
